Data origin, for the record: patent US10071967B2

Assay: log P by HPLC on a reversed-phase column (C 18), EEC Directive 79/831 Annex V.A8
Format: physicochemical
Conditions: HPLC, reversed-phase column (C 18), 40° C.; 0.1% aqueous formic acid and acetonitrile, linear gradient 10% to 90% acetonitrile
test-readout: logP

- Cn1cc(C(=O)N(Cc2cc(Br)ccc2C2(C(F)F)CC2)C2CC2)c(C(F)F)n1: 3.44
- Cn1cc(C(=O)N(Cc2cccc(F)c2C2(C)CC2)C2CC2)c(C(F)F)n1: 3.46
- Cc1ccc(C2(CC(C)C)CC2)c(CN(C(=O)c2c(C)nn(C)c2F)C2CC2)c1: 4.97
- C#CC1(c2ccc(C)cc2CN(C(=S)c2c(C)nn(C)c2F)C2CC2)CC1: 4.54
- Cc1nn(C)cc1C(=O)N(Cc1cccc(F)c1C1(C)CC1)C1CC1: 2.98
- Cc1ccc(C2(C)CC2)c(CN(C(=O)c2cc(C3CC3)oc2C)C2CC2)c1: 5.22
- Cc1ccc(C2(C(C)C)CC2)c(CN(C(=O)c2nn(C)nc2C(F)F)C2CC2)c1: 5.08
- CCC1(c2ccccc2CN(C(=O)c2cn(C)nc2C(F)F)C2CC2)CC1: 3.79
- Cc1ccc(C2(C)CC2)c(CN(C(=O)c2c(C(F)F)nn(C)c2C)C2CC2)c1: 3.99
- Cc1cc(C(=O)N(Cc2ccc(Cl)cc2C2(C)CC2)C2CC2)c(C)o1: 4.98
- CCC1(c2cc(C(F)(F)F)ccc2CN(C(=O)c2cn(C)nc2C(F)F)C2CC2)CC1: 4.36
- Cn1cc(C(=S)N(Cc2cccc(F)c2C2(C)CC2)C2CC2)c(C(F)F)n1: 4.04
